- assay.target: Fibroblast growth factor 2 (Homo sapiens)
- experimental.protocol: FGF2 binders on small-molecule microarrays, primary screen, biochemical, small-molecule microarray, 635/667 nm fluorescence (AID 1133)
- experimental.parameters: small-molecule microarray binding, FGF2, fluorescence 635/667; higher = more signal
value.kind: composite z-score

CN(C)CCCNC(=O)[C@@]1(Cc2ccccc2I)c2ccccc2C(=O)N(Cc2ccccc2)[C@H]1c1ccc(CO)cc1; 1.58
C=CCOC(=O)[C@@H]1[C@H]2C(=O)O[C@H](c3ccccc3)[C@H](c3ccccc3)N2[C@H](c2ccc(OCCOC(=O)[C@H]3C[C@H]4C(=O)NCC(=O)N4[C@H]3c3ccc(O)cc3)cc2)[C@@]12C(=O)Nc1ccc(I)cc12; 1.39

### Prompt # composite z-score lookup, item "CCC[C@@H]1[C@@H](Sc2ccccc2)[C@@H](C(=O)O)[C@H](c2ccc(C)cc2)N1S(=O)(=O)c1ccc(C)cc1"
### Response 0.0754

### Prompt # composite z-score lookup, item "CC(C)C[C@@H]1NC(=O)[C@@H]2C[C@H](C(=O)NCCCC[N+](C)(C)C)[C@H](c3ccc(O)cc3)N2C1=O"
### Response 1.76

### Prompt # composite z-score lookup, item "[N-]=[N+]=NCc1ccccc1[C@H]1OC(c2ccc(OCCCO)cc2)=N[C@@]1(Cc1ccccc1)C(=O)N1CCOCC1"
### Response 1.48
